Origin of values: patent US10294202B2

Overview of reported Plant response rating, Barnyardgrass across a group of compounds:
- System: barnyardgrass
- MEASUREMENT_PROTOCOL: Test C flooded paddy test
- Format: in vivo, Echinochloa crus-galli
- PARTICULARS: Flood, 62 g ai/ha; scale of 0 to 100 where 0 is no effect and 100 is complete control; 13 to 15 days
Form: value (number only, do not type unit).

Consider the following illustrative entries.
COMPOUND	TARGET_OR_SYSTEM	NUMBER
O=C1NCC(c2ccc(F)c(F)c2)C1C(=O)Nc1cccc(F)c1 (racemic)	barnyardgrass	0
CC1NC(=O)C(C(=O)Nc2ccccc2F)C1c1ccc(F)c(F)c1 (mixture of isomers)	barnyardgrass	0
O=C1NCC(c2cccc(F)c2)C1C(=O)Nc1ccccc1F (racemic)	barnyardgrass	0
Cc1cccc(NC(=O)C2C(=O)NCC2c2cccc(C(F)(F)F)c2)c1 (stereo not drawn)	barnyardgrass	0

Look up Plant response rating, Barnyardgrass: O=C1NCC(c2ccc(F)cc2)C1C(=O)Nc1cccc(F)c1F (racemic) 50

Look up Plant response rating, Barnyardgrass: O=C1NCC(c2cccc(Cl)c2)C1C(=O)Nc1cccc(F)c1F (racemic) 35
